molecular target: glucose-6-phosphate dehydrogenase-6-phosphogluconolactonase (Plasmodium falciparum 3D7); test: inhibition of P. falciparum G6PD activity – biochemical, end-point NADPH detection, orthogonal assay, dose response (AID 540252); details: purified PfG6PD enzyme, NADPH direct detection
The source made the active and inactive calls. The rule behind the calls is not given here.
Can you answer with just one of these options? true = active, false = inactive

Q: In this assay, the call recorded for `COCc1cc(=O)n2[nH]c(C(C)(C)C)cc2n1` was what?
Result: false

Q: In this assay, the call recorded for `CCOc1ccc2ccccc2c1/C=N/NC(=O)c1ccncc1` was what?
Result: false

Q: In this assay, the call recorded for `Cc1cc(C)c2sc(NC(=O)C3=COCCO3)nc2c1` was what?
Result: false

Q: In this assay, the call recorded for `O=C1Nc2cc(C(=O)NCCCN3CCCC3)ccc2S/C1=C/c1cccc(Cl)c1` was what?
Result: false

Q: In this assay, the call recorded for `CC(=O)Nc1ccc2sn(-c3ccccc3)c(=O)c2c1` was what?
Result: true

Q: In this assay, the call recorded for `O=C(CNC(=O)c1cccs1)NCC(=O)OCC(=O)c1ccc([N+](=O)[O-])cc1` was what?
Result: true

Q: In this assay, the call recorded for `Clc1ccc2nc(-c3ccc(Br)s3)cn2c1` was what?
Result: false

Q: In this assay, the call recorded for `Cc1c(/C=C/C(=O)c2ccc(Cl)s2)cnn1C` was what?
Result: false

Q: In this assay, the call recorded for `Cn1c(=O)c2c([nH]c(=S)n2CCCc2ccccc2)n(C)c1=O` was what?
Result: false

Q: In this assay, the call recorded for `O=c1c2cc(F)ccc2sn1-c1ccccc1Cl` was what?
Result: true

Q: In this assay, the call recorded for `CS(=O)(=O)c1ccc(N)c(SSc2cc(S(C)(=O)=O)ccc2N)c1` was what?
Result: true

Q: In this assay, the call recorded for `O=c1c2ccccc2sn1-c1cccc(Cl)c1` was what?
Result: true

====

target: glucose-6-phosphate dehydrogenase-6-phosphogluconolactonase (Plasmodium falciparum 3D7); experiment: inhibition of P. falciparum G6PD activity – biochemical, end-point NADPH detection, orthogonal assay, dose response (AID 540252); details: purified PfG6PD enzyme, NADPH direct detection
The source made the active and inactive calls. The rule behind the calls is not given here.
Can you answer with just one of these options? yes (1) = active, no (0) = inactive

Q: In this assay, the call recorded for `CCCNC(=O)Cn1sc2nc(C)cc(C)c2c1=O` was what?
Result: no (0)

Q: In this assay, the call recorded for `C[C@]12CC[C@@H]3c4ccc(O)c(O)c4CC[C@H]3[C@@H]1CC[C@@H]2O` was what?
Result: yes (1)

Q: In this assay, the call recorded for `Cc1ccc(SC2=C(Sc3ccc(C)cc3)C(=O)c3ccccc3C2=O)cc1` was what?
Result: no (0)

Q: In this assay, the call recorded for `Clc1ccc2nc(-c3ccc4c(c3)OCO4)cn2c1` was what?
Result: no (0)

Q: In this assay, the call recorded for `O=S(=O)(Nc1ccc(Cl)cc1)c1ccc(N2CCOCC2)c(NC(=S)NCCN2CCOCC2)c1` was what?
Result: no (0)

Q: In this assay, the call recorded for CC(CNc1ccccc1O)C(=O)O (stereo unspecified) was what?
Result: no (0)

Q: In this assay, the call recorded for COc1ccc(NC(C)C(=O)N/N=C/c2cc(Br)ccc2OC)cc1 (stereo unspecified) was what?
Result: no (0)

Q: In this assay, the call recorded for `COc1cc(CNc2ccc3[nH]c(=O)[nH]c3c2)ccc1OCc1ccccc1` was what?
Result: no (0)

Q: In this assay, the call recorded for `COc1ccccc1N1C(=O)C=C(Sc2nc(C)cc(C)n2)C1=O` was what?
Result: no (0)

Q: In this assay, the call recorded for `Cc1ccc(C(=O)/C=C/C(=O)c2ccc(C)cc2)cc1` was what?
Result: yes (1)

Q: In this assay, the call recorded for `COc1ccc(C(=O)c2c(C(F)(F)F)oc3c2C(=O)c2ccccc2C3=O)cc1` was what?
Result: no (0)

====

target: glucose-6-phosphate dehydrogenase-6-phosphogluconolactonase (Plasmodium falciparum 3D7); experiment: inhibition of P. falciparum G6PD activity – biochemical, end-point NADPH detection, orthogonal assay, dose response (AID 540252); conditions: purified PfG6PD enzyme, NADPH direct detection
Calls of active or inactive are those of the source. No rule for the calls is given here.
Can you answer with just one of these options? 1.0 (active), 0.0 (inactive)

Q: In this assay, the call recorded for `COc1cc(N)c2ncsc2c1` was what?
Result: 0.0

Q: In this assay, the call recorded for `O=c1c2ccccc2sn1-c1ccc(Cl)cc1` was what?
Result: 1.0

Q: In this assay, the call recorded for `Cc1ccc(/C=C/C(=O)NCc2ccc(S(N)(=O)=O)cc2)o1` was what?
Result: 0.0

Q: In this assay, the call recorded for `O=c1c2ccccc2sn1-c1nccs1` was what?
Result: 1.0

Q: In this assay, the call recorded for O=C(Nc1nc(-c2ccncc2)cs1)C1COc2ccccc2O1 (centres undefined) was what?
Result: 0.0

Q: In this assay, the call recorded for `Cc1ccc(S(=O)(=O)Nc2nc(C)c(C(=O)N/N=C/c3ccccc3)s2)cc1` was what?
Result: 0.0

Q: In this assay, the call recorded for `COc1ccc(CNC(=O)Cc2cn(C)c3ccccc23)c(OC)c1` was what?
Result: 0.0

Q: In this assay, the call recorded for `CN1CCN(C(=S)C(=O)Nc2ccc(Br)cc2)CC1` was what?
Result: 1.0

Q: In this assay, the call recorded for `COc1cc(Sc2ccc(C)cc2)c(OC)cc1N` was what?
Result: 0.0

Q: In this assay, the call recorded for `Cn1c(=O)[nH]c(=O)c2c1[nH]c(=S)n2CCCc1ccccc1` was what?
Result: 1.0

Q: In this assay, the call recorded for `CCOC(=O)Cc1csc(-n2sc3ccccc3c2=O)n1` was what?
Result: 0.0

Q: In this assay, the call recorded for `CCN(CC)C(=S)SSC(=S)N(CC)CC` was what?
Result: 0.0

Q: In this assay, the call recorded for `CCN1CCN(c2nc(C)nc3c2sc(=S)n3C)CC1` was what?
Result: 1.0

Q: In this assay, the call recorded for `Cc1ccc(/C=C/C(=O)Nc2ccc([N+](=O)[O-])c(NC(=O)/C=C/c3ccc(C)o3)c2)o1` was what?
Result: 1.0

Q: In this assay, the call recorded for `COc1cc(N=Cc2c(CO)cnc(C)c2O)cc(OC)c1OC` was what?
Result: 0.0

Q: In this assay, the call recorded for `NCCc1cc(O)c(O)cc1O` was what?
Result: 0.0

Q: In this assay, the call recorded for `COc1cc(NCc2ccccc2)c2ncn(C(C)C)c2c1` was what?
Result: 0.0

Q: In this assay, the call recorded for `O=C(Nc1nnc(S(=O)(=O)N2CCCCCC2)s1)c1cccc(Br)c1` was what?
Result: 0.0

Q: In this assay, the call recorded for `COc1cc(O)c(C(=O)O)c(-c2cc(O)c(O)cc2C)c1` was what?
Result: 0.0

Q: In this assay, the call recorded for Cc1ccc(N2CC(C(=O)OCC(=O)c3ccc([N+](=O)[O-])cc3)CC2=O)cc1 (centres undefined) was what?
Result: 1.0

Q: In this assay, the call recorded for `Cc1ccccc1OCC(=O)N/N=C/c1ccc(Sc2nc3ccccc3s2)o1` was what?
Result: 0.0

Q: In this assay, the call recorded for `CC1(C)Cc2c(sc3nc4n(-c5ccccc5)c(=O)c(CCC(=O)O)nn4c(=O)c23)CO1` was what?
Result: 1.0

Q: In this assay, the call recorded for `O=C(CCC(=O)Nc1ccccc1Cl)N/N=C/c1ccccc1` was what?
Result: 0.0

Q: In this assay, the call recorded for `N#Cc1c(C#N)c(SSc2c(C#N)c(C#N)c(N)n2-c2ccccc2)n(-c2ccccc2)c1N` was what?
Result: 0.0

====

biological target: glucose-6-phosphate dehydrogenase-6-phosphogluconolactonase (Plasmodium falciparum 3D7); assay: inhibition of P. falciparum G6PD activity – biochemical, end-point NADPH detection, orthogonal assay, dose response (AID 540252); details: purified PfG6PD enzyme, NADPH direct detection
Active and inactive are the calls of the source. No rule for the calls is given here.
Can you answer with just one of these options? 1.0 for active, 0.0 for inactive

Q: In this assay, the call recorded for `CN(CCO)c1cc(Sc2nc3ccccc3s2)c2nonc2c1[N+](=O)[O-]` was what?
Result: 1.0

Q: In this assay, the call recorded for CC(NC1=CC(=O)c2cccnc2C1=O)C(O)c1ccccc1 (stereo not drawn) was what?
Result: 0.0

Q: In this assay, the call recorded for `[O-]/[N+](=C\c1ccccc1)c1ccc(Br)cc1` was what?
Result: 1.0

Q: In this assay, the call recorded for `Cn1c(-c2sccc2OCc2cccc(C(F)(F)F)c2)n[nH]c1=S` was what?
Result: 0.0

Q: In this assay, the call recorded for `CCOc1ccc(S(=O)(=O)Nc2cc(SCC(=O)O)c(O)c3ccccc23)cc1` was what?
Result: 0.0

Q: In this assay, the call recorded for `O=C(O)c1ccc(-n2c(-c3cc(-c4ccco4)[nH]n3)n[nH]c2=S)cc1` was what?
Result: 0.0

Q: In this assay, the call recorded for `CCc1cc(-c2n[nH]c(C)c2-c2ccccc2Cl)c(O)cc1OC` was what?
Result: 0.0

Q: In this assay, the call recorded for `Cc1ccsc1/C=N\NC(=O)CC(=O)NCc1ccccc1` was what?
Result: 0.0

Q: In this assay, the call recorded for `CC(=O)Nc1ccc2c(=O)n(-c3ccccc3)sc2c1` was what?
Result: 1.0

Q: In this assay, the call recorded for `CC(=NNC(=S)N1CCN(c2ccccn2)CC1)c1nccs1` was what?
Result: 0.0

Q: In this assay, the call recorded for COc1ccc(OCc2nnc3n2N=C(c2ccccc2)C(CC(=O)O)S3)cc1 (stereo not drawn) was what?
Result: 0.0

Q: In this assay, the call recorded for CC1COCC(C)N1C1=C(Cl)C(=O)c2ccccc2C1=O (stereo not drawn) was what?
Result: 0.0

Q: In this assay, the call recorded for O=[N+]([O-])c1ccc2c(c1)-c1ccccc1C2O (stereo not drawn) was what?
Result: 1.0

Q: In this assay, the call recorded for `O=c1c2cc(F)ccc2sn1-c1ccc(F)cc1` was what?
Result: 1.0

Q: In this assay, the call recorded for `C/C(Cn1nnc([N+](=O)[O-])n1)=N\NC(=O)c1ccc(O)cc1` was what?
Result: 0.0

Q: In this assay, the call recorded for `CCOc1cc(CNc2ccc(N3CCCC3)cc2)cc(Cl)c1OC` was what?
Result: 0.0

Q: In this assay, the call recorded for `Nc1c(O)cccc1C(=O)O` was what?
Result: 0.0

Q: In this assay, the call recorded for `COc1cc(N(C)C)ccc1C=c1c2ccccc2n2c1cc(-c1ccccc1)[n+]2C` was what?
Result: 0.0

Q: In this assay, the call recorded for `CN1CCN(C(=O)c2sc(=S)n(-c3ccccc3)c2N)CC1` was what?
Result: 1.0

Q: In this assay, the call recorded for `CCNc1nc(NC(C)C)nc(NS(=O)(=O)c2ccc(Cl)cc2)n1` was what?
Result: 0.0

Q: In this assay, the call recorded for `CCOc1ccccc1NC(=O)CCCc1nc2ccccc2c(=O)[nH]1` was what?
Result: 0.0

Q: In this assay, the call recorded for O=C(O)C(Cc1ccccc1)N1C(=O)C=CC1=O (stereo not drawn) was what?
Result: 1.0

Q: In this assay, the call recorded for `COc1ccc(CN(C)S(=O)(=O)c2nnc(NC(=O)c3cccc(C)c3)s2)cc1OC` was what?
Result: 0.0
